B1: L-fucose dehydrogenase (Homo sapiens), Q9BPX1 (parent)
chain: MATGTRYAGKVVVVTGGGRGIGAGIVRAFVNSGARVVICDKDESGGRALEQELPGAVFILCDVTQEDDVKTLVSETIRRFGRLDCVVNNAGHHPPPQRPEETSAQGFRQLLELNLLGTYTLTKLALPYLRKSQGNVINISSLVGAIGQAQAVPYVATKGAVTAMTKALALDESPYGVRVNCISPGNIWTPLWEELAALMPDPRATIREGMLAQPLGRMGQPAEVGAAAVFLASEANFCTGIELLVTGGAELGYGCKASRSTPVDAPDIPS
partner: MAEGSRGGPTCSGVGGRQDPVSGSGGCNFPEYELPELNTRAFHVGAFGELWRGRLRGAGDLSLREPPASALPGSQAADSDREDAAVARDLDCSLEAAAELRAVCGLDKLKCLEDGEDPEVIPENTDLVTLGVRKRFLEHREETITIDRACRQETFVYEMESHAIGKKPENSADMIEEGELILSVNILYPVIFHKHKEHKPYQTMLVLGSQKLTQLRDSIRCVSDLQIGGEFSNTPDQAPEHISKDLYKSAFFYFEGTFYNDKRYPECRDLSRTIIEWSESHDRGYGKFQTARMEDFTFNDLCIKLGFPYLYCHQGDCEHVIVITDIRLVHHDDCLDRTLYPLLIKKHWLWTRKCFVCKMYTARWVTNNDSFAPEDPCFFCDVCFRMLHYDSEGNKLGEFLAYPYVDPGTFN

Variants of: B1
Details: with snpc3_human SNAPC3, Q92966

Variant Description: N31D
effect of a mutation on the interaction: with no effect
--
Variant Description: A56T
effect of a mutation on the interaction: with no effect
